Molecular target: substance P receptor (Cavia porcellus, UniProt P30547)
Construct: A preparation of a crude lung membrane sample was prepared; from tissue; host or cells: guinea-pig lung (crude membrane sample)
Sequence (P30547 whole entry): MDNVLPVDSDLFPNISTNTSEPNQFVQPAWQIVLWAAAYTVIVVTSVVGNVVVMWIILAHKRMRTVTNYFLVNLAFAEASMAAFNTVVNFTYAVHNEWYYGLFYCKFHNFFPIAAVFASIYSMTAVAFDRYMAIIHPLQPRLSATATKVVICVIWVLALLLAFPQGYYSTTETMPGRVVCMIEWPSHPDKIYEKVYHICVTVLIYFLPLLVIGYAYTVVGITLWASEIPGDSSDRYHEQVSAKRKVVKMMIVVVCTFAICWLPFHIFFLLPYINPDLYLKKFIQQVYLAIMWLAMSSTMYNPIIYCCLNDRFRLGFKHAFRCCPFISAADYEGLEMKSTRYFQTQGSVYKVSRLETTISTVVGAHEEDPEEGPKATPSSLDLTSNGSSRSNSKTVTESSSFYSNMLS
Test: Test for binding to guinea-pig substance P receptor (crude lung membrane sample)
Conditions: crude guinea-pig lung membrane sample, [3H]substance P; Ki from IC50 and Kd; read-out: Ki
Where a name gives a salt, the structure may show the parent alone.
I'd be grateful if you could share measured pKi for these entries.
// scale note: pKi = -log10(conc_M); give the bare number

Prompt: Dear colleague, I am looking for the recorded pKi of the following molecule: CN(CCN1CCC(OC(=O)Nc2ccccc2-c2ccccc2)CC1)C(=O)CCCCCNc1ncc(C(=O)N(C)CCCN(C)C(=O)CO[C@H]2Cc3ccccc3C23CCN(CC[C@@]2(c4ccc(F)cc4)CN(C(=O)c4cc(C(F)(F)F)cc(C(F)(F)F)c4)CO2)CC3)cn1 [Example 14, trihydrochloride]
Response: 8.72

Prompt: Dear colleague, I am looking for the recorded pKi of the following molecule: CN(CCN1CCC(OC(=O)Nc2ccccc2-c2ccccc2)CC1)C(=O)COCCCNc1ccc(C(=O)N(C)CCCN(C)C(=O)CO[C@H]2Cc3ccccc3C23CCN(CC[C@@]2(c4ccc(F)cc4)CN(C(=O)c4cc(C(F)(F)F)cc(C(F)(F)F)c4)CO2)CC3)cc1 [Example 27, trihydrochloride]
Response: 8.92

Prompt: Dear colleague, I am looking for the recorded pKi of the following molecule: CN(CCN1CCC(OC(=O)Nc2ccccc2-c2ccccc2)CC1)C(=O)CCCCCNc1ccc(N(C)C(=O)CCCN(C)C(=O)CO[C@H]2Cc3ccccc3C23CCN(CC[C@@]2(c4ccc(F)cc4)CN(C(=O)c4cc(C(F)(F)F)cc(C(F)(F)F)c4)CO2)CC3)cc1 [Example 84, trihydrochloride]
Response: 8.57

Prompt: Dear colleague, I am looking for the recorded pKi of the following molecule: CN(CCN1CCC(OC(=O)Nc2ccccc2-c2ccccc2)CC1)C(=O)CCCCCNc1ccc(C(=O)N(C)CCN(C)C(=O)CO[C@H]2Cc3ccccc3C23CCN(CC[C@@]2(c4ccc(F)cc4)CN(C(=O)c4cc(C(F)(F)F)cc(C(F)(F)F)c4)CO2)CC3)cc1 [Example 16, trihydrochloride]
Response: 8.60

Prompt: Dear colleague, I am looking for the recorded pKi of the following molecule: CN(CCN1CCC(OC(=O)Nc2ccccc2-c2ccccc2)CC1)C(=O)CCCCCNc1ccc(C(=O)N(C)CCCN(C)C(=O)CO[C@H]2Cc3ccccc3C23CCN(CC[C@@]2(c4ccc(F)cc4)CN(C(=O)c4cc(C(F)(F)F)cc(C(F)(F)F)c4)CO2)CC3)cc1 [Example 72]
Response: 8.85

Prompt: Dear colleague, I am looking for the recorded pKi of the following molecule: CN(CCN1CCC(OC(=O)Nc2ccccc2-c2ccccc2)CC1)C(=O)CCCCCNCc1ccc(C(=O)N(C)CCCN(C)C(=O)CO[C@H]2Cc3ccccc3C23CCN(CC[C@@]2(c4ccc(F)cc4)CN(C(=O)c4cc(C(F)(F)F)cc(C(F)(F)F)c4)CO2)CC3)cc1 [Example 75]
Response: 9.00

Prompt: Dear colleague, I am looking for the recorded pKi of the following molecule: CN(CCCCCC(=O)N(C)CCN1CCC(OC(=O)Nc2ccccc2-c2ccccc2)CC1)Cc1ccc(C(=O)N(C)CCCN(C)C(=O)CO[C@H]2Cc3ccccc3C23CCN(CC[C@@]2(c4ccc(F)cc4)CN(C(=O)c4cc(C(F)(F)F)cc(C(F)(F)F)c4)CO2)CC3)cc1 [Example 74]
Response: 9.06

Prompt: Dear colleague, I am looking for the recorded pKi of the following molecule: CN(CCN1CCC(OC(=O)Nc2ccccc2-c2ccccc2)CC1)C(=O)CCNc1ccc(C(=O)N(C)CCCN(C)C(=O)CO[C@H]2Cc3ccccc3C23CCN(CC[C@@]2(c4ccc(F)cc4)CN(C(=O)c4cc(C(F)(F)F)cc(C(F)(F)F)c4)CO2)CC3)cc1 [Example 94]
Response: 9.09

Prompt: Dear colleague, I am looking for the recorded pKi of the following molecule: Cc1cc(NCCCCCC(=O)N(C)CCN2CCC(OC(=O)Nc3ccccc3-c3ccccc3)CC2)sc1C(=O)N(C)CCCN(C)C(=O)CO[C@H]1Cc2ccccc2C12CCN(CC[C@@]1(c3ccc(F)cc3)CN(C(=O)c3cc(C(F)(F)F)cc(C(F)(F)F)c3)CO1)CC2 [Example 30, trihydrochloride]
Response: 8.72

Prompt: Dear colleague, I am looking for the recorded pKi of the following molecule: CN(CCN1CCC(OC(=O)Nc2ccccc2-c2ccccc2)CC1)C(=O)CCCC1CCN(c2ccc(C(=O)N(C)CCCN(C)C(=O)CO[C@H]3Cc4ccccc4C34CCN(CC[C@@]3(c5ccc(F)cc5)CN(C(=O)c5cc(C(F)(F)F)cc(C(F)(F)F)c5)CO3)CC4)cc2)CC1 [Example 66, trihydrochloride]
Response: 8.68

Prompt: Dear colleague, I am looking for the recorded pKi of the following molecule: Cc1cc(NCCCCCC(=O)N(C)CCN2CCC(OC(=O)Nc3ccccc3-c3ccccc3)CC2)sc1C(=O)N(C)CCN(C)C(=O)CO[C@H]1Cc2ccccc2C12CCN(CC[C@@]1(c3ccc(F)cc3)CN(C(=O)c3cc(C(F)(F)F)cc(C(F)(F)F)c3)CO1)CC2 [Example 89]
Response: 9.13

Prompt: Dear colleague, I am looking for the recorded pKi of the following molecule: Cc1nc(NCCCCCC(=O)N(C)CCN2CCC(OC(=O)Nc3ccccc3-c3ccccc3)CC2)sc1C(=O)N(C)CCCN(C)C(=O)CO[C@H]1Cc2ccccc2C12CCN(CC[C@@]1(c3ccc(F)cc3)CN(C(=O)c3cc(C(F)(F)F)cc(C(F)(F)F)c3)CO1)CC2 [Example 105, trihydrochloride]
Response: 8.68

Prompt: Dear colleague, I am looking for the recorded pKi of the following molecule: Cc1nc(N(C)CCCCCC(=O)N(C)CCN2CCC(OC(=O)Nc3ccccc3-c3ccccc3)CC2)sc1C(=O)N(C)CCCN(C)C(=O)CO[C@H]1Cc2ccccc2C12CCN(CC[C@@]1(c3ccc(F)cc3)CN(C(=O)c3cc(C(F)(F)F)cc(C(F)(F)F)c3)CO1)CC2 [Example 106, trihydrochloride]
Response: 8.51

Prompt: Dear colleague, I am looking for the recorded pKi of the following molecule: CN(CCN1CCC(OC(=O)Nc2ccccc2-c2ccccc2)CC1)C(=O)CCCCCNc1ccc(C(=O)N(C)CCCN(C)C(=O)CO[C@H]2Cc3ccccc3C23CCN(CC[C@@]2(c4ccc(F)cc4)CN(C(=O)c4cc(C(F)(F)F)cc(C(F)(F)F)c4)CO2)CC3)cc1F [Example 13, trihydrochloride]
Response: 8.59

Prompt: Dear colleague, I am looking for the recorded pKi of the following molecule: CN(CCN1CCC(OC(=O)Nc2ccccc2-c2ccccc2)CC1)C(=O)CCCN(C)c1ccc(C(=O)N(C)CCCN(C)C(=O)CO[C@H]2Cc3ccccc3C23CCN(CC[C@@]2(c4ccc(F)cc4)CN(C(=O)c4cc(C(F)(F)F)cc(C(F)(F)F)c4)CO2)CC3)cc1 [Example 36, trihydrochloride]
Response: 8.85

====

Target: neurokinin NK1 receptor (Cavia porcellus)
Construct: Using healthy guinea pigs (body weight, 350 to 550 g; Hartley male guinea pigs); from tissue; host or cells: live anaesthetised Hartley male guinea pigs (airway, in vivo)
Sequence (P30547 whole entry): as above
Test: Effect of suppressing substance P-induced airway contraction (in vivo, intratracheal administration)
Parameters: species or system guinea pig
Conditions: guinea pig; guinea pigs, intratracheal administration 60 minutes before 20 μg/kg i.v. SP; AUC of increase in airway pressure over 10 minutes; read-out: ID50 (the source's name)
Structures can show the parent of a compound that is named as a salt.
reported metric: ED50 (mg/kg)
Your answer should be a plain number; it is taken to be in mg/kg.

Prompt: Dear colleague, I am looking for the recorded ED50 of the following compound: CN(CCN1CCC(OC(=O)Nc2ccccc2-c2ccccc2)CC1)C(=O)CCCCCCN(C)c1ccc(C(=O)N(C)CCCN(C)C(=O)CO[C@H]2Cc3ccccc3C23CCN(CC[C@@]2(c4ccc(F)cc4)CN(C(=O)c4cc(C(F)(F)F)cc(C(F)(F)F)c4)CO2)CC3)cc1 [Example 40, trihydrochloride]
Response: 0.0191

Prompt: Dear colleague, I am looking for the recorded ED50 of the following compound: CN(CCN1CCC(OC(=O)Nc2ccccc2-c2ccccc2)CC1)C(=O)CCCCCNc1ncc(C(=O)N(C)CCCN(C)C(=O)CO[C@H]2Cc3ccccc3C23CCN(CC[C@@]2(c4ccc(F)cc4)CN(C(=O)c4cc(C(F)(F)F)cc(C(F)(F)F)c4)CO2)CC3)cn1 [Example 14, trihydrochloride]
Response: 0.0172

Prompt: Dear colleague, I am looking for the recorded ED50 of the following compound: "CN(CCN1CCC(OC(=O)Nc2ccccc2-c2ccccc2)CC1)C(=O)CCNc1ccc(C(=O)N(C)CCCN(C)C(=O)CO[C@H]2Cc3ccccc3C23CCN(CC[C@@]2(c4ccc(F)cc4)CN(C(=O)c4cc(C(F)(F)F)cc(C(F)(F)F)c4)CO2)CC3)cc1"
Response: 0.0087

Prompt: Dear colleague, I am looking for the recorded ED50 of the following compound: "CN(CCN1CCC(OC(=O)Nc2ccccc2-c2ccccc2)CC1)C(=O)CCCCCN(C)c1ccc(C(=O)N(C)CCCN(C)C(=O)CO[C@H]2Cc3ccccc3C23CCN(CC[C@@]2(c4ccc(F)cc4)CN(C(=O)c4cc(C(F)(F)F)cc(C(F)(F)F)c4)CO2)CC3)cc1"
Response: 0.0622

Prompt: Dear colleague, I am looking for the recorded ED50 of the following compound: CN(CCN1CCC(OC(=O)Nc2ccccc2-c2ccccc2)CC1)C(=O)CCOCCNc1ccc(C(=O)N(C)CCCN(C)C(=O)CO[C@H]2Cc3ccccc3C23CCN(CC[C@@]2(c4ccc(F)cc4)CN(C(=O)c4cc(C(F)(F)F)cc(C(F)(F)F)c4)CO2)CC3)cc1 [Example 29, trihydrochloride]
Response: 0.0292

Prompt: Dear colleague, I am looking for the recorded ED50 of the following compound: CN(CCN1CCC(OC(=O)Nc2ccccc2-c2ccccc2)CC1)C(=O)CCCCCNc1ccc(C(=O)N(C)CCN(C)C(=O)CO[C@H]2Cc3ccccc3C23CCN(CC[C@@]2(c4ccc(F)cc4)CN(C(=O)c4cc(C(F)(F)F)cc(C(F)(F)F)c4)CO2)CC3)cc1 [Example 16, trihydrochloride]
Response: 0.016

Prompt: Dear colleague, I am looking for the recorded ED50 of the following compound: CN(CCN1CCC(OC(=O)Nc2ccccc2-c2ccccc2)CC1)C(=O)CCCCNc1ccc(C(=O)N(C)CCCN(C)C(=O)CO[C@H]2Cc3ccccc3C23CCN(CC[C@@]2(c4ccc(F)cc4)CN(C(=O)c4cc(C(F)(F)F)cc(C(F)(F)F)c4)CO2)CC3)cc1 [Example 32, trihydrochloride]
Response: 0.0202

Prompt: Dear colleague, I am looking for the recorded ED50 of the following compound: CN(CCN1CCC(OC(=O)Nc2ccccc2-c2ccccc2)CC1)C(=O)CCCCCNc1ccc(C(=O)N(CCCN(C)C(=O)CO[C@H]2Cc3ccccc3C23CCN(CC[C@@]2(c4ccc(F)cc4)CN(C(=O)c4cc(C(F)(F)F)cc(C(F)(F)F)c4)CO2)CC3)C2CC2)cc1 [Example 25, trihydrochloride]
Response: 0.0437

Prompt: Dear colleague, I am looking for the recorded ED50 of the following compound: CN(CCN1CCC(OC(=O)Nc2ccccc2-c2ccccc2)CC1)C(=O)COCCCNc1ccc(C(=O)N(C)CCCN(C)C(=O)CO[C@H]2Cc3ccccc3C23CCN(CC[C@@]2(c4ccc(F)cc4)CN(C(=O)c4cc(C(F)(F)F)cc(C(F)(F)F)c4)CO2)CC3)cc1 [Example 27, trihydrochloride]
Response: 0.0229

Prompt: Dear colleague, I am looking for the recorded ED50 of the following compound: CN(CCN1CCC(OC(=O)Nc2ccccc2-c2ccccc2)CC1)C(=O)CCCCCNc1ccc(N(C)C(=O)CCCN(C)C(=O)CO[C@H]2Cc3ccccc3C23CCN(CC[C@@]2(c4ccc(F)cc4)CN(C(=O)c4cc(C(F)(F)F)cc(C(F)(F)F)c4)CO2)CC3)cc1 [Example 84, trihydrochloride]
Response: 0.0357

Prompt: Dear colleague, I am looking for the recorded ED50 of the following compound: CN(CCN1CCC(OC(=O)Nc2ccccc2-c2ccccc2)CC1)C(=O)CCCCCNc1cccc(C(=O)N(C)CCCN(C)C(=O)CO[C@H]2Cc3ccccc3C23CCN(CC[C@@]2(c4ccc(F)cc4)CN(C(=O)c4cc(C(F)(F)F)cc(C(F)(F)F)c4)CO2)CC3)c1 [Example 43, trihydrochloride]
Response: 0.0766

Prompt: Dear colleague, I am looking for the recorded ED50 of the following compound: "CN(CCCCCC(=O)N(C)CCN1CCC(OC(=O)Nc2ccccc2-c2ccccc2)CC1)Cc1ccc(C(=O)N(C)CCCN(C)C(=O)CO[C@H]2Cc3ccccc3C23CCN(CC[C@@]2(c4ccc(F)cc4)CN(C(=O)c4cc(C(F)(F)F)cc(C(F)(F)F)c4)CO2)CC3)cc1"
Response: 0.0174

Prompt: Dear colleague, I am looking for the recorded ED50 of the following compound: CN(CCN1CCC(OC(=O)Nc2ccccc2-c2ccccc2)CC1)C(=O)CCCN(C)c1ccc(C(=O)N(C)CCCN(C)C(=O)CO[C@H]2Cc3ccccc3C23CCN(CC[C@@]2(c4ccc(F)cc4)CN(C(=O)c4cc(C(F)(F)F)cc(C(F)(F)F)c4)CO2)CC3)cc1 [Example 36, trihydrochloride]
Response: 0.0236

Prompt: Dear colleague, I am looking for the recorded ED50 of the following compound: CN(CCN1CCC(OC(=O)Nc2ccccc2-c2ccccc2)CC1)C(=O)CCCCN(C)c1ccc(C(=O)N(C)CCCN(C)C(=O)CO[C@H]2Cc3ccccc3C23CCN(CC[C@@]2(c4ccc(F)cc4)CN(C(=O)c4cc(C(F)(F)F)cc(C(F)(F)F)c4)CO2)CC3)cc1 [Example 38, trihydrochloride]
Response: 0.0161
